Reported melting point values for the following compounds.

Worked cases, answers included:
compound="Fc1ccc(C2=NOC(c3cc(Cl)cc(Cl)c3)(C(F)(F)F)C2)cc1Br (centres undefined)" property_name="melting point" measurement="132 °C"
compound=COc1ccc2[nH]cc(/C(C#N)=C/c3cccc(C(N)=O)c3)c2c1 property_name="melting point" measurement="234 °C"
compound="CCN1c2ncc(CC(O)c3ccncc3)cc2C(=O)N(C)c2ccc(F)nc21 (centres undefined)" property_name="melting point" measurement="174 to 176 °C"

Requested field: melting point. Item: `O=C(O)c1cccc(S(=O)(=O)Oc2ccc(-c3ccc(-c4c(Cc5ccccc5)oc5ccccc45)cc3)cc2)c1` 169 to 171 °C

Find the recorded melting point belonging to `CC(=O)OCc1nc(C#N)cc(OCc2ccccc2)c1OCc1ccccc1` and report it. 98 to 99 °C

Which melting point value is on record for `COc1nnc(-c2ccccc2)cc1C` ? 62 to 64 °C

Dear colleague, I am looking for the recorded melting point of the following compound: `CC1(C)CNc2cc3[nH]c(-c4cccnc4)nc3cc21` 213 to 215 °C

Look up melting point for this compound: O=C1CCC2(CCC(=O)c3cc(Cl)ccc32)C(=O)N1 (centres undefined) 282 to 284 °C

# input compound: `CC1(C)CCC(C)(C)c2cc(-c3cc(-c4ccc(C(=O)O)nc4)ccc3-c3ccccc3)ccc21` ; wanted: its melting point 160 to 162 °C

Query (compound): `COc1ccc(CN2CC(c3ccccc3)=C(O)C2=O)cc1` ; field requested: melting point 195 to 198 °C

What does the record list as melting point for `Cc1cc(C(=O)CCc2cc(-c3ccc(C(F)(F)F)cc3)nn2CC2CC2)ccc1OC(C)(C)C(=O)O` ? 55 to 60 °C

Name the recorded melting point for O=C(O)C1CCC(OCc2ccccc2)CC1 (centres undefined) . 55 to 64 °C

Report melting point for `CCn1ncc(-c2ccc3c(c2)c(C2=CCN(CCN4CCNC4=O)CC2)cn3-c2ccc(F)cc2)n1` please. 143 to 145 °C

Using the record for `CCCc1c(OCCCOc2ccc([C@H]3OC(=O)C[C@H]3C)cc2)ccc(C(C)=O)c1O` , report its melting point. 88.5 to 89.5 °C

# query: melting point of entry O=C(C=Cc1ccc(Cl)cc1)N1CCN(c2ccc(OC[C@H]3CO[C@](Cn4cncn4)(c4ccc(Cl)cc4Cl)O3)cc2)CC1 (relative stereo) 185 °C

What value of measured melting point is listed for `CN1C(=O)CCCc2ccc([N+](=O)[O-])cc21` ? 151 to 152 °C

Please report the recorded melting point for `C[C@H](O)CCOc1c(-c2ccc(S(C)(=O)=O)cc2)cnn(-c2ccc(F)c(F)c2)c1=O` . 128 to 130 °C

# input compound: `CCc1nn(CC(=N)NO)c(CC)c1Oc1cc(Cl)cc(Cl)c1` ; wanted: its melting point 128 to 130 °C

Could you tell me which melting point is on file for `NNC(=O)OCCOc1ccc(C(=O)c2ccccc2)c(O)c1` ? 58 to 61 °C

* * *

Here the recorded melting point is given for each entry.

Some solved entries appear below for comparison.
compound=Cc1nc(N2CCC[C@H]2CO)c2nc(-c3ccccc3)cc-2[nH]1 property_name="melting point" measurement="255 to 256 °C"
compound=CC(C)(C)C(=O)Nc1nc(O)c2cc(C#C[Si](C)(C)C)cnc2n1 property_name="melting point" measurement="> 250 °C"
compound="Cc1c(NC(=O)C(CSC(=O)c2cccs2)Cc2ccccc2)cccc1C(=O)O (stereo not given)" property_name="melting point" measurement="164 to 167 °C"
compound=NC(=NCC(F)(F)F)Nc1ccn(CCCCO)n1 property_name="melting point" measurement="105 to 106 °C"
compound=CCCCOC(=O)C(=O)Nc1nc2ccccc2s1 property_name="melting point" measurement="137 to 138 °C"

Recorded melting point of `COc1cccc(OCCCNC(=O)OC(C)(C)C)c1-c1cc(Nc2cnc(C#N)cn2)n[nH]1` , please. 214 to 216 °C

# melting point lookup, item `CC(=O)Nc1ccccc1SCc1ncon1` 89 °C

Look up melting point: O=C(O)CCCCCCCNC(=O)C(CS)Cc1ccccc1 (stereo not given) 81 to 83 °C

Quick one: melting point of `Cc1ccccc1-c1cc(N2CCN(C(=O)CO)CC2)ncc1C(=O)N(C)Cc1cc(C(F)(F)F)cc(C(F)(F)F)c1` ? 91 to 93 °C

Entry under review: `Cc1cccc(C)c1NC1=NCCN1` . Reported melting point? 155 to 156 °C

* * *

Property name: melting point (°C)

molecule=NS(=O)(=O)c1ccc(-c2noc(-c3cnn4c(C(F)(F)F)cc(-c5ccc(Cl)cc5)nc34)n2)cc1 measurement=296
molecule="COc1ccc(S(=O)(=O)N2C(=O)C(NC(C)=O)(c3ccccc3)c3cc(Cl)ccc32)c(OC)c1 (stereo not given)" measurement=253

* * *

Property name: melting point

// lookup melting point for `CCCNC(=O)C1(CCCN2CCC(N3Cc4ccccc4C3=O)CC2)c2ccccc2-c2ccccc21` 136 to 138 °C

Could you share which melting point value was measured for `CCCCCCCCCCCCCCCCCCOc1cc(N)cc(OCCCOc2ccccc2)c1` ? 74 to 76 °C

Consider the compound shown here: CCOC(=O)C1Cc2cc(C(=O)c3ccccc3F)c(O)c(Cl)c2O1 (stereo not given) What is its recorded melting point? 119 to 120 °C

Need melting point of `COc1cc(OC)c(OC)cc1CN1CCc2cc(OCc3ccccc3)c(OC)cc2C1` , thanks. 110 to 111 °C

For `COC(=O)C(C(=O)OC)c1ccc(C(=O)O)cc1[N+](=O)[O-]` , what is its reported melting point? 147 to 149 °C

* * *

Property name: melting point

The following molecules have reported results that may help.
item_smiles=CN(CC(=O)[C@@H](N)Cc1ccccc1)C(=O)N1CCC[C@H]1C(=O)O property_name="melting point" measurement="174 to 175 °C"
item_smiles=O=C(CCn1c2ccc(O)cc2c2c3c(c(-c4ccccc4Cl)cc21)C(=O)NC3=O)NS(=O)(=O)c1ccccc1 property_name="melting point" measurement="291 to 293 °C"

Now look at this entry.
Any idea what melting point was measured for `O=C(OCc1ccccc1)N1CC(O)(C(=O)O)C1` ? 134 to 136 °C

* * *

The following molecules are listed with their measured melting point values.

molecule=CCc1nc(-c2ccc(OCCCc3cccnc3)cc2)no1 measurement="63 to 64 °C"
molecule=CC(C)(C)OC(=O)Nc1ccc2ccc(S(=O)(=O)N(Cc3ccccc3)Cc3ccccc3)cc2c1Br measurement="150 to 151 °C"
molecule=CCCCCc1c(O)ccc2c1OCCC2=O measurement="132 to 134 °C"
molecule="CCOC(=O)NCCCC1OCC(c2cccc3ccccc23)CO1 (stereo not given)" measurement="93 to 94 °C"

// below: melting point requested for another molecule
Requested read-out: melting point. Entry: `COc1ccc(Nc2ccnc(NCCO)c2)cc1` 164 to 165 °C

* * *

melting point overview

Sample answers from the record:
compound=COC(=O)CCCCCc1nn(-c2ccc(F)cc2)c2c1CCC2 measurement="39 to 40 °C"
compound=CC(=O)c1[nH]c2cc(Cl)cc(Cl)c2c1C measurement="178 °C"
compound=COc1ccc2c(C)c(Cl)ccc2c1C(F)(F)F measurement="102 to 103 °C"
compound="COC(=O)c1ccc(COC2OC(CO)C(O)C(O)C2O)o1 (stereo unspecified)" measurement="72 °C"
compound=N=c1sc2cc(OC(F)(F)F)ccc2n1CC(N)=O measurement="228 °C"

GET /values?readout=melting point&item= `CC(=O)NCCc1coc2ccc3c(c12)OCCO3` 112 °C

Recorded melting point of `CCCCc1ncc(/C=C2\C(=O)N(CC(=O)OCC)c3c(OC)cccc32)n1Cc1ccc(C(=O)OC)cc1` , please. 157 to 158 °C

Given the compound `O=C(Nc1ccccc1)C(=O)c1c2n(c3ccccc13)CCNCC2` , what is its reported melting point? 157 to 160 °C

Any idea what melting point was measured for CCn1cc(CN(C(=O)C2CCc3cc(OC)ccc32)c2ccc(C(C)C)cc2)cn1 (stereo unspecified) ? 115 to 116 °C

Requested field: melting point. Item: COc1cc2c(cc1OC)C1CCC(O)CC1N=C2c1ccc(OCC2CC2)c(OCC2CC2)c1 (stereo unspecified) 172 to 174 °C

I would be grateful if you could share the reported melting point for `Cc1oc(-c2ccco2)nc1COc1ccc(COc2ncccc2C=O)cc1` . 109 to 110 °C

Quick check: melting point of COc1ccc(C(O)c2ccccn2)c(Cl)c1Cl (stereo unspecified) ? 174 to 176 °C

Recorded melting point of `CC(C)C(=O)c1ccc(OCc2ccc(CNC(=O)c3cn(C)cn3)cc2)c(C(F)(F)F)c1O` , please. 165 °C

// melting point lookup, key: `COCCOc1ccc([N+](=O)[O-])cc1S(=O)(=O)Cl` 74 to 74.5 °C

I would be grateful if you could share the reported melting point for CCCCC1(CCCC)CCc2c(OCc3ccc4ccccc4n3)ccc(Cl)c2C1O (stereo unspecified) . 142 to 144 °C

Which measured melting point value corresponds to `O=C1C=CC(=O)N1c1ccc(Cl)cc1` ? 109 to 110 °C

Which melting point is reported for this compound? CC(C)C1Cc2cnc3c(c2C1(O)CCN)CCO3 (stereo unspecified) 142 to 143 °C

Entry `Cn1c2ccc(Cl)cc2c2cc(C(=O)N3CCOCC3)sc21` : reported melting point = ? 178 to 182 °C

Give its melting point value. Item: CC1CC2C3CCC4=CC(=O)CCC4=C3C=CC2(C)C1O (stereo unspecified) 149 to 151 °C

Sample `CCCNC(=O)c1nc(C)ccc1C(=O)Nc1c(C#N)ccc(Cl)c1C` — what was its melting point? 175 to 176 °C

Look up melting point: `CC1(C)OC(=S)Nc2ccc(-c3cc(C#N)ccc3F)cc21` 250 to 251 °C
